# SUBJECT_OF_TEST: T1, human IL-17A (construct not stated) (human, UniProt Q16552 24-155, limits assumed)
# T1 construct: also called huIL-17A; human IL-17A biotin
# T1 sequence: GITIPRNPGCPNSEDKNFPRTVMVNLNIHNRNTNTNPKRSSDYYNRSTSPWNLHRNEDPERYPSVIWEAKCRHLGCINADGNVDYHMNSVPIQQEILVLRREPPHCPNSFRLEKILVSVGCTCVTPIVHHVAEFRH
# TEST_PROTOCOL: ELISA on coated huIL-17A, crude Fab extract
MEASUREMENT_TYPE: Classic ELISA (normalized to XAB1 Fab)

{"columns": ["BINDER", "MEASUREMENT_TYPE", "RESULT"],
 "data": [
  ["MB432 (Fab, V domains shown, 32 stays A); heavy chain C-terminal Flag tag) VH: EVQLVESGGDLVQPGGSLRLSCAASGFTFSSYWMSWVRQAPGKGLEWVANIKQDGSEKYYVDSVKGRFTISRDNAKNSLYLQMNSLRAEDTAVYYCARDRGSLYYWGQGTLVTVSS VL: AIQLTQSPSSLSASVGDRVTITCRPSQGILFALAWYQQKPGKAPKLLIYDASSLENGVPSRFSGSGSGTDFTLTISSLQPEDFATYYCQQFNSYPLTFGGGTKVEIK", "Classic ELISA (normalized to XAB1 Fab)", "2.3 ratio to XAB1 Fab"],
  ["MB434 (Fab, V domains shown, heavy chain C-terminal Flag tag) VH: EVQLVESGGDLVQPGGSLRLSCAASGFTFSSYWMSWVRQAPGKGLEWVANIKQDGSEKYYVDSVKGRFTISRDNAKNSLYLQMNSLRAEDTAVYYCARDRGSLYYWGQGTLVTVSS VL: AIQLTQSPSSLSASVGDRVTITCRPSQGIWWYLAWYQQKPGKAPKLLIYDASSLENGVPSRFSGSGSGTDFTLTISSLQPEDFATYYCQQFNSYPLTFGGGTKVEIK", "Classic ELISA (normalized to XAB1 Fab)", "2.4 ratio to XAB1 Fab"]
]}

For the binder MB447 (Fab, V domains shown, heavy chain C-terminal Flag tag) VH: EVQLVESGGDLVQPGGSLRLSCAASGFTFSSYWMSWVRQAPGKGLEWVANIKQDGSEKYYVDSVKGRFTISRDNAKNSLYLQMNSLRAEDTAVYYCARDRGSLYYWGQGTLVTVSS VL: AIQLTQSPSSLSASVGDRVTITCRPSQGIFWWLAWYQQKPGKAPKLLIYDASSLENGVPSRFSGSGSGTDFTLTISSLQPEDFATYYCQQFNSYPLTFGGGTKVEIK , what Classic ELISA (normalized to XAB1 Fab) is on record? 3 ratio to XAB1 Fab

Again, but for MB444 (Fab, V domains shown, heavy chain C-terminal Flag tag) VH: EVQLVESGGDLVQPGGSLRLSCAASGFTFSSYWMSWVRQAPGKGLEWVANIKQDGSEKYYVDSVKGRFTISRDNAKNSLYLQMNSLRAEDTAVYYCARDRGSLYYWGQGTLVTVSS VL: AIQLTQSPSSLSASVGDRVTITCRPSQGILWELAWYQQKPGKAPKLLIYDASSLENGVPSRFSGSGSGTDFTLTISSLQPEDFATYYCQQFNSYPLTFGGGTKVEIK 3.2 ratio to XAB1 Fab

MB464 (Fab, V domains shown, 30 stays I); heavy chain C-terminal Flag tag) VH: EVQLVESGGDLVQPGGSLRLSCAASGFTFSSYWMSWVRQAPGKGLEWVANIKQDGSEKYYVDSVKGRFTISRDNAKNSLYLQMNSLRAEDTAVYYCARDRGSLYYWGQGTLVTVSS VL: AIQLTQSPSSLSASVGDRVTITCRPSQGIIYQLAWYQQKPGKAPKLLIYDASSLENGVPSRFSGSGSGTDFTLTISSLQPEDFATYYCQQFNSYPLTFGGGTKVEIK ? 2.7 ratio to XAB1 Fab
